Sourced from ChEMBL document CHEMBL2029262

Biological target: Kinesin-like protein KIF11 (Homo sapiens)
Sequence (P52732 whole entry): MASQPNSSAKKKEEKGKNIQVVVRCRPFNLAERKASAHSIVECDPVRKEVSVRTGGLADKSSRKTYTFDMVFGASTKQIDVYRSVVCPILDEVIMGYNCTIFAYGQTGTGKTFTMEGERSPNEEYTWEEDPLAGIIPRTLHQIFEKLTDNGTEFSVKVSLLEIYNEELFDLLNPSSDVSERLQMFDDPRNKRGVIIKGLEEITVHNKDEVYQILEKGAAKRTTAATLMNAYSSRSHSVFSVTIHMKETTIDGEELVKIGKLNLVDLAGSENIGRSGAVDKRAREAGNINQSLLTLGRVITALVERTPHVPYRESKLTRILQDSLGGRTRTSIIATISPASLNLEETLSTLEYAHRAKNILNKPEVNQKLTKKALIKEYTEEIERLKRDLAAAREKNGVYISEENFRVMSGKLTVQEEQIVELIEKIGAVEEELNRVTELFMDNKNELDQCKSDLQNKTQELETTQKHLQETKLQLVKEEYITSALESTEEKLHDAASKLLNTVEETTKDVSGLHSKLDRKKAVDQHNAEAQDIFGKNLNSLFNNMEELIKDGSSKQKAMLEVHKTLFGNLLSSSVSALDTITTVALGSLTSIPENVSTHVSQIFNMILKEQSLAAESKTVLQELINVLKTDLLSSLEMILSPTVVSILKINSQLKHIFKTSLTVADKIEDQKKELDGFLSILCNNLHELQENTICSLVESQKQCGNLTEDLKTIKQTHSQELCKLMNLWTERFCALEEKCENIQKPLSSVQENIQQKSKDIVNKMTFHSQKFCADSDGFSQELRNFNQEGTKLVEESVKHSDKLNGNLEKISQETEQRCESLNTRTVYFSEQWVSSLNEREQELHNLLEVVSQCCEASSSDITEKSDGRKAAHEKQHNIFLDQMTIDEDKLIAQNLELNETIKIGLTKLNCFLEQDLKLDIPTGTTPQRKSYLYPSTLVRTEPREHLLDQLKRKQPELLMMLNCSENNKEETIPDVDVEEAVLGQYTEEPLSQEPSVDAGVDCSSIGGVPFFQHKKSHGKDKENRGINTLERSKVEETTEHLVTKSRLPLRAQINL
Test: Inhibition of Eg5 ATPase activity by pyruvate kinase/lactate dehydrogenase-linked assay
Conditions: read-out: IC50
In this section we review reported pIC50 values for a set of compounds.
pIC50 is defined as minus the log10 of a concentration measured in mol/L.

See these solved cases before continuing.
compound	pIC50
Cc1ccsc1CCN1C(=S)N(c2ccc(F)cc2)C(=O)C1CC(=O)Nc1ccc(F)cc1 (stereo unspecified)	6.22
Cc1ccc2c(c1)-c1cc(C)nn1C(c1ccccc1F)N2 (stereo unspecified)	5.20
COC(=O)c1c(C)oc2c1cc(NS(=O)(=O)c1ccc(C(=O)O)cc1)c1ccccc12	4.10
Cc1ccc(-n2c(=O)[nH]c3c(C(N)=O)nc(-c4ccc(F)cc4F)nc32)cc1C	4.38
COc1ccc(NC(=O)CC2C(=O)N(c3ccccc3)C(=S)N2CCc2sccc2C)cc1 (stereo unspecified)	5.62

Next item in the queue.
# lookup: pIC50 of COc1ccc(N2C(=O)C(CC(=O)Nc3ccccc3)N(CCc3cccs3)C2=S)cc1 (stereo unspecified)
6.00

###

Molecular target: Kinesin-like protein KIF11 (Homo sapiens) (UniProt P52732)
Experiment: Inhibition of Eg5 ATPase activity by pyruvate kinase/lactate dehydrogenase-linked assay
Parameters: concentration or dose not given beside the values
Details: concentration not given here
In this section we review reported inhibition values for a set of compounds.

See these solved cases before continuing.
compound	subject_of_test	recorded_measurement
Cc1ccc2c(c1)-c1cc(C)nn1C(c1ccccc1F)N2 (stereo unspecified)	Kinesin-like protein KIF11 (Homo sapiens) (UniProt P52732)	60%
Cc1ccc(-n2c(=O)[nH]c3c(C(N)=O)nc(-c4ccc(F)cc4F)nc32)cc1C	Kinesin-like protein KIF11 (Homo sapiens) (UniProt P52732)	60%
COc1ccc(NC(=O)CC2C(=O)N(c3ccccc3)C(=S)N2CCc2sccc2C)cc1 (stereo unspecified)	Kinesin-like protein KIF11 (Homo sapiens) (UniProt P52732)	60%

# lookup: inhibition of COc1ccc(N2C(=O)C(CC(=O)Nc3ccccc3)N(CCc3cccs3)C2=S)cc1 (stereo unspecified)
60%

# lookup: inhibition of Cc1ccsc1CCN1C(=S)N(c2ccc(F)cc2)C(=O)C1CC(=O)Nc1ccc(F)cc1 (stereo unspecified)
80%

# lookup: inhibition of COC(=O)c1c(C)oc2c1cc(NS(=O)(=O)c1ccc(C(=O)O)cc1)c1ccccc12
80%

###

Molecular target: Kinesin heavy chain isoform 5C (Homo sapiens, UniProt O60282)
Sequence (O60282 whole entry, canonical isoform): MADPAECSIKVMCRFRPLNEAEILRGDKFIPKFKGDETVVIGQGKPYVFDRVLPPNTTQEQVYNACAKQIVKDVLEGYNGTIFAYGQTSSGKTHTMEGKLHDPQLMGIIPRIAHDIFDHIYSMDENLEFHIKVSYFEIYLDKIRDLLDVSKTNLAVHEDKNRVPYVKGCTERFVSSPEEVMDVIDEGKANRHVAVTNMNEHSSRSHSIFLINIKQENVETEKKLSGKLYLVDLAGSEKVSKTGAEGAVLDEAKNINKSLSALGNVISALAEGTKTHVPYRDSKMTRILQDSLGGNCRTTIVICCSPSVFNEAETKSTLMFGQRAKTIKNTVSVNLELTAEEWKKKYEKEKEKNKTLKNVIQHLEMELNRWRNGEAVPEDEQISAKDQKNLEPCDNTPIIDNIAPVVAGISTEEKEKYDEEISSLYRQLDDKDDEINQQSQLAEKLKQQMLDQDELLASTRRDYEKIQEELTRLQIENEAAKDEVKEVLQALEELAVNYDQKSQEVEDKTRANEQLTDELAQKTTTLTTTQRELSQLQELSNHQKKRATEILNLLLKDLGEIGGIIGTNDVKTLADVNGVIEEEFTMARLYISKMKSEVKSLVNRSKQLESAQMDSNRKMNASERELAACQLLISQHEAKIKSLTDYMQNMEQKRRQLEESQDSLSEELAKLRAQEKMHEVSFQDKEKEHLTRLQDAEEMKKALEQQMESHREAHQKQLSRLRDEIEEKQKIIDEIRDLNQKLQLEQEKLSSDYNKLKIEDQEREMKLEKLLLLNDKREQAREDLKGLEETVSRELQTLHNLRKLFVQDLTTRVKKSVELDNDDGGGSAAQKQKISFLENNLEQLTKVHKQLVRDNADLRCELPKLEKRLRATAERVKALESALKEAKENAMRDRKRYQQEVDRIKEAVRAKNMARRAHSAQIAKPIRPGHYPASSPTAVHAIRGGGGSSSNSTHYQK
Assay: Inhibition of human Kif5C ATPase activity by pyruvate kinase/lactate dehydrogenase-linked assay
Settings: read-out: IC50
quantity: IC50 (µM)
I only need the number, in µM, no unit after it.

# lookup: IC50 of Cc1ccc(-n2c(=O)[nH]c3c(C(N)=O)nc(-c4ccc(F)cc4F)nc32)cc1C
50
